Numbers sourced from patent US20220324970A1.

biological target: T1, human pIgR extracellular domain (ECD) (human, UniProt P01833 19-638); assay: ECL (MSD), anti-VHH detection against anti-Fc detection
T1 construct: also called hpIgR ECD
T1 sequence (P01833 other isoform, or with tags, fused parts or gaps): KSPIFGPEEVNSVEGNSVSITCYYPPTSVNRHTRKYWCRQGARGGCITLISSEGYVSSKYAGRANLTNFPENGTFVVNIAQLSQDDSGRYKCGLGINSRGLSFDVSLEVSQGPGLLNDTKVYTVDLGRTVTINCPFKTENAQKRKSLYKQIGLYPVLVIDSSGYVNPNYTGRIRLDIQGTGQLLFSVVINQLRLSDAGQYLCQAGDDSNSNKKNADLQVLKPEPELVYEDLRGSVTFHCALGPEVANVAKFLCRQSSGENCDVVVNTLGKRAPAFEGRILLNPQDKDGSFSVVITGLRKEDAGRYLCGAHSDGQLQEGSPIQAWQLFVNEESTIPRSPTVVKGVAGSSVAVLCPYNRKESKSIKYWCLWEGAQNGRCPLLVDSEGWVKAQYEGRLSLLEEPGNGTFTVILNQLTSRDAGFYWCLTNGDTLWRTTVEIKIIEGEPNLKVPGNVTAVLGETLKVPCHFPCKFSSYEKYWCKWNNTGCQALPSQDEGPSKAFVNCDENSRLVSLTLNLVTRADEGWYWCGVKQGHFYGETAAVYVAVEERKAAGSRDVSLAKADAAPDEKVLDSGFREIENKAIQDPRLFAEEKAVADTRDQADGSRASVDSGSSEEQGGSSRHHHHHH
Please respond with reported Fold change in EC50 for every item in the list.
The number alone won't do; follow it with the unit.

// Fold change in EC50 value for VHH9-linker-mono-Fc protein (Fc fusion, made in CHO cells; also called VHH9-mono-Fc; hpIgR_221) QVQLVESGGGLVQAGGSLRLSCAVSGRTFSTYRMGWFRQAPGKERSFVAAISWSGGSTTYADPVKGRFTISRDNAKNTVYLRMNSLKPEDTAVYYCNDQRGYWGQGTLVTVSSEPKTPKPQPQPQLQPQPNPTTESKSPKSPAPELLGGPSVFLFPPKPKDTLMISRTPEVTCVVVDVSHEDPEVKFNWYVDGVEVHNAKTKPREEQYNSTYRVVSVLTVLHQDWLNGKEYKCKVSNKALPAPIEKTISKAKGQPREPQVYTKPPSREEMTKNQVSLSCLVKGFYPSDIAVEWESNGQPENNYKTTVPVLDSDGSFRLASYLTVDKSRWQQGNVFSCSVMHEALHNHYTQKSLSLSPGK : 1.8 fold

// Fold change in EC50 value for VHH6-linker-mono-Fc protein (Fc fusion, made in CHO cells; also called VHH6-mono-Fc; hpIgR_181) EVQLVESGGGLVQAGGSLRLSCAVSGSSVSSDAMGWYRQAPGNQRAWVAFISGGGTTTYADSVKGRFTISRDNTKNTVYLHMNSLKPEDTAVYYCNHPLTSRWGQGTQVTVSSEPKTPKPQPQPQLQPQPNPTTESKSPKSPAPELLGGPSVFLFPPKPKDTLMISRTPEVTCVVVDVSHEDPEVKFNWYVDGVEVHNAKTKPREEQYNSTYRVVSVLTVLHQDWLNGKEYKCKVSNKALPAPIEKTISKAKGQPREPQVYTKPPSREEMTKNQVSLSCLVKGFYPSDIAVEWESNGQPENNYKTTVPVLDSDGSFRLASYLTVDKSRWQQGNVFSCSVMHEALHNHYTQKSLSLSPGK : 1060 fold
